Hey, just so you know, these numbers are from patent US11931424B2.

# Tested on: panel of breast cancer cell lines
# measurement-notes: Compound A with targeted agents and chemotherapies, 72-hour in vitro proliferation assays
# Assay type: cell-based
# measurement-conditions: ZR-75-30 cells; combination of compound A with the named agent; 72-hour proliferation
# strict inequality: Loewe Volume < 4 yields Y, everything else yields N

C[C@]12CC[C@@H]3c4ccc(O)cc4C[C@@H](CCCCCCCCC[S+]([O-])CCCC(F)(F)C(F)(F)F)[C@H]3[C@@H]1CC[C@@H]2O (some centres unmarked) :: Y
N.N.[Cl][Pt][Cl] [Cisplatin] :: N
CO[C@H]1C[C@@H]2CC[C@@H](C)[C@@](O)(O2)C(=O)C(=O)N2CCCC[C@H]2C(=O)O[C@H]([C@H](C)C[C@@H]2CC[C@@H](OCCO)[C@H](OC)C2)CC(=O)[C@H](C)/C=C(\C)[C@@H](O)[C@@H](OC)C(=O)[C@H](C)C[C@H](C)/C=C/C=C/C=C/1C :: N
CC(=O)O[C@@]12CO[C@@H]1C[C@H](O)[C@@]1(C)C(=O)[C@H](O)C3=C(C)[C@@H](OC(=O)[C@H](O)[C@@H](NC(=O)OC(C)(C)C)c4ccccc4)C[C@@](O)([C@@H](OC(=O)c4ccccc4)[C@H]21)C3(C)C :: Y

Ask: Answer whether the compound "N.N.O=C([O-])C1(C(=O)[O-])CCC1.[Pt+2]" has Loewe Volume strictly less than 4
Reply: N
